ASSAY_PROCEDURE: in vivo
TEST_CONTEXT: male, NRG, mouse, iv, total radioactivity, Biodistribution Brain Mean
Numbered stars: 1 amine (or outer) side, 2 acyl side, 3 side chain; on linkers, the order of the positions; unused ones are H or OH. Square brackets hold non-standard residues; d marks the D form. Peptide text beside a SMILES is read from it. * marks the point of attachment. DOTA = O=C(O)CN1CCN(CC(=O)O)CCN(CC(=O)*)CCN(CC(=O)O)CC1; Leuψ(CH2N)ThzNH2 = CC(C)C[C@@H](CN1CSC[C@H]1C(N)=O)N*; NMeH = CN[C@@H](Cc1c[nH]cn1)C(=O)O; X1 = O=C(CN1CCC(N[*:1])CC1)[*:2]; Tle = CC(C)(C)[C@H](N)C(=O)O; Thz = O=C(O)[C@@H]1CSCN1
# tissue uptake at 1 h per entry
Your answer should be a plain number; it is taken to be in %ID/g.

Here's what some known entries look like.
CC(C)C[C@H](NC(=O)[C@H](Cc1c[nH]cn1)N(C)C(=O)CNC(=O)[C@@H](NC(=O)[C@H](C)NC(=O)[C@H](Cc1c[nH]c2ccccc12)NC(=O)[C@H](CCC(N)=O)NC(=O)[C@@H](Cc1ccccc1)NC(=O)CN1CCC(NC(=O)CN2CCN(CC(=O)O)CCN(CC(=O)O)CCN(CC(=O)O)CC2)CC1)C(C)C)C(=O)N1CSC[C@H]1C(N)=O [^68Ga-LW01107, metal not drawn]	0.01
CC(C)C[C@H](NC(=O)[C@H](Cc1cnc[nH]1)N(C)C(=O)CNC(=O)[C@@H](NC(=O)[C@H](C)NC(=O)[C@H](Cc1c[nH]c2ccccc12)NC(=O)[C@H](CCC(N)=O)NC(=O)[C@@H](Cc1ccccc1)NC(=O)CN1CCC(NC(=O)CN2CCN(CC(=O)O)CCN(CC(=O)O)CCN(CC(=O)O)CC2)CC1)C(C)(C)C)C(=O)N1CSC[C@H]1C(N)=O [^68Ga-LW01110, metal not drawn]	0.03
CC(C)C[C@H](NC(=O)[C@H](Cc1c[nH]cn1)NC(=O)CNC(=O)[C@@H](NC(=O)[C@H](C)NC(=O)[C@H](Cc1c[nH]c2ccccc12)NC(=O)[C@H](CCC(N)=O)NC(=O)[C@@H](Cc1ccccc1)NC(=O)CN1CCC(NC(=O)CN2CCN(CC(=O)O)CCN(CC(=O)O)CCN(CC(=O)O)CC2)CC1)C(C)(C)C)C(=O)N1CSC[C@H]1C(N)=O [^68Ga-LW01108, metal not drawn]	0.02

Problem: Give the reported tissue uptake at 1 h for this molecule. CC(C)C[C@@H](CN1CSC[C@H]1C(N)=O)NC(=O)[C@H](Cc1c[nH]cn1)NC(=O)CNC(=O)[C@@H](NC(=O)[C@H](C)NC(=O)[C@H](Cc1c[nH]c2ccccc12)NC(=O)[C@H](CCC(N)=O)NC(=O)[C@@H](Cc1ccccc1)NC(=O)CN1CCC(NC(=O)CN2CCN(CC(=O)O)CCN(CC(=O)O)CCN(CC(=O)O)CC2)CC1)C(C)(C)C [^68Ga-LW01158, metal not drawn] ({DOTA}-[X1][dF]QWA[Tle]GH-{Leuψ(CH2N)ThzNH2})
Result: 0.03

Problem: Determine its reported tissue uptake at 1 h: CC(C)C[C@H](NC(=O)[C@H](Cc1cnc[nH]1)N(C)C(=O)CNC(=O)[C@@H](NC(=O)[C@H](C)NC(=O)[C@H](Cc1c[nH]c2ccccc12)NC(=O)[C@H](Cc1c[nH]cn1)NC(=O)[C@@H](Cc1ccccc1)NC(=O)CN1CCC(NC(=O)CN2CCN(CC(=O)O)CCN(CC(=O)O)CCN(CC(=O)O)CC2)CC1)C(C)(C)C)C(=O)N1CSC[C@H]1C(N)=O [^68Ga-LW01142, metal not drawn] ({DOTA}-[X1][dF]HWA[Tle]G[NMeH]L[Thz]-NH2)
Result: 0.15
